// reported Ki for each item listed
Protein target, amino acids: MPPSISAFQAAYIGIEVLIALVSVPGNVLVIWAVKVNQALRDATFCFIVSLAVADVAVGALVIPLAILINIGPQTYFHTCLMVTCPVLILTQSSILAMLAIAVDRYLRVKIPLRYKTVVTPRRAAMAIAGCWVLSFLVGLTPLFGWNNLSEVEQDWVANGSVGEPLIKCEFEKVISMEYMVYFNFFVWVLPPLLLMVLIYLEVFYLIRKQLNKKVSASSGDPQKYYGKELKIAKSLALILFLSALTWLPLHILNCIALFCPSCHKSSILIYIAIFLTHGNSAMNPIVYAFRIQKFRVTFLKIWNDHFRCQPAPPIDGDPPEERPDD
Note: unit nM is implicit; provide only the numeric part.

Consider the following illustrative entries.
{"INPUT SMILES": "CCCCNc1nc2c(N[C@@H]3CCOC3)ncnc2n1[C@@H]1O[C@H](CO)[C@@H](O)[C@H]1O", "Ki / nM": 2840}
{"INPUT SMILES": "OC[C@H]1O[C@@H](n2c(NCc3ccccc3)nc3c(N[C@@H]4CCOC4)ncnc32)[C@H](O)[C@@H]1O", "Ki / nM": 7470}

Now let's try a different one.
For reference, reported Ki for `CCCNc1nc2c(N[C@@H]3CCOC3)ncnc2n1[C@@H]1O[C@H](CO)[C@@H](O)[C@H]1O` stands at 1040
